List of apparent KD of MS2 coat protein values.
Test system: MS2 coat protein
Test: apparent KD of MS2 coat protein; designed switch direction (-1 OFF switch, 1 ON switch): 1; higher = weaker reporter binding
Condition Details: input ligand: FMN 200 uM

[
  {
    "Seq Text": "UUGCUCGUGUGAGGAUAUGCAGCCGUUUCGGCUGCAGAAGGUACUAUAAUACAUGAGGAUCACCCAUGUCUCUAUUAUUUAGUG [salish99_SSNG1_r04_926] (Eterna round: R96, puzzle: Same State NG 1)",
    "apparent KD of MS2 coat protein": "19.5 nM"
  },
  {
    "Seq Text": "GGUCGGACCUACAUGAGGAUCACCCAUGUUCCGGAAACGGCACAGGAUAUCUGUCCGAAAAGGUCAGAGAAGGGUGAACCGACC [Fiskers NG3ss - 75] (Eterna round: R96, puzzle: Same State NG 3)",
    "apparent KD of MS2 coat protein": "1000 nM"
  }
]

* * *

System: MS2 coat protein
Test: apparent KD of MS2 coat protein, switch ON state; designed switch direction (-1 OFF switch, 1 ON switch): -1; higher = weaker reporter binding
Condition Details: FMN input: 0 or 200 uM; Eterna round: R93 (includes R88 designs)
sequences and their reported apparent KD of MS2 coat protein
Property Measured: apparent KD of MS2 coat protein (nM)

[
  {
    "Seq Text": "AAAAAGUGAGGAUAUACAUGAGGAUCACCCAUGUGAAAGUCGAAAAAAAAGACAAGAAGUAGAAGGCACAAAAA [Fiskers Exclusion 3 D2 variant]",
    "Unit": "nM",
    "Numeric Value": 24.3
  },
  {
    "Seq Text": "GAAAGGGCAGGAUAUGCGGAGAGAGAGAGAGAGAGAGAGAGACAUGAGGAUCACCCAUGUAGAAGGGCCGAAAG [salish99-ex2-08]",
    "Unit": "nM",
    "Numeric Value": 36.9
  },
  {
    "Seq Text": "UAAAGACAUGAGGAUCACCCAUGUGAGGAUAUCGGAGAUAACAGAACAUCAAGUUCAACGAGAAGGCACAGAAA [JR_Exc001_Sub401]",
    "Unit": "nM",
    "Numeric Value": 47.4
  },
  {
    "Seq Text": "AACAGGUUAGGAUAUAUGUAACAAAUAAAAAAAAUAUAAACAUAGAAGGAACAUGAGGAUCACCCAUGUUAACA [May 29]",
    "Unit": "nM",
    "Numeric Value": 29.7
  },
  {
    "Seq Text": "AACAGUACAGGAUAUACAUGAGGAUCACCCAUGUGAAAAUUAAGUGGCGUACCACAAAGUAGAAGGGUACUGAA [Moding Maslow Revisited (73) 26]",
    "Unit": "nM",
    "Numeric Value": 27.9
  },
  {
    "Seq Text": "GAAAAGAGAGGAUAUACUUUGGGAAAAGAAAAGAUGAUGUUACAUGAGGAUCACCCAUGUAGAAGGCUCAAAAA [Mat - Exclusion 2 - Mod - D156]",
    "Unit": "nM",
    "Numeric Value": 27.1
  }
]

* * *

Tested on: K4 kissing-loop RNA reporter
Test: apparent KD of K4 kissing-loop reporter; higher = weaker reporter binding
Condition Details: Eterna round: R107; input ligand: theophylline 20 uM

[
  {
    "Seq Text": "GGUAGCAUGGCGGCCGCCACUUACACCACGGCCCUUCUAGUGAUGUUAGAGUGGAUUAUUCCGUUAAGGACCGGGCCAUGCUACC",
    "apparent KD of K4 kissing-loop reporter, nM": 650
  },
  {
    "Seq Text": "CUGUCAUGGGAUGGGCCAGUGAUGUUGGGCCGAGGACCGGUACGGCCGCCACUCGUAGCACAGUGCGCGCUAGCAUUGUACGUCA [theeternabot_exclusion_KL_Trp_A_35]",
    "apparent KD of K4 kissing-loop reporter, nM": 808
  },
  {
    "Seq Text": "AGCAAUAUCACGGCCGCCACUGAAUAUUGUUUUUAUAUUUAUAAAUCUUGCCAGUGAUGUUGGUUCAGGACCGGGUGAGUUAAUA [JR_SSTryptoB_Sub004]",
    "apparent KD of K4 kissing-loop reporter, nM": 665
  }
]

* * *

Tested on: K4 kissing-loop RNA reporter
Test: apparent KD of K4 kissing-loop reporter; higher = weaker reporter binding
Condition Details: Eterna round: R107; input ligand: tryptophan 2.4 mM
Entries and their measured apparent KD of K4 kissing-loop reporter follow.
Property Measured: apparent KD of K4 kissing-loop reporter (nM)

[
  {
    "Seq Text": "UUAUCUAUAUUCGAUACCAGUACCCUUUGUGUUAAUCCUUUUAUCAGUGAUGUUGAUGUGUACCCUUGGCAGCGGGUAUGGGUUU [KL-XTheo-B15]",
    "Numeric Value": 349
  },
  {
    "Seq Text": "UUUUAUUCGUACUUCUAGUGAUGUUAGAUUCGAGGACCGGUACGGCCGCCACUCGUUAAGGCGAUUUUAUAUUUUUUAUUCUUUA [JR_SSTryptoA_Sub012]",
    "Numeric Value": 138
  },
  {
    "Seq Text": "UGGGCCGCCUGAGGAUAUAGAGACGAGUGAUGUUCGUGGAUAAGAGCCAGUGAUGUUGGGUUAUUUCUAGAAGGCGGGCGAACUU [Exclusion FMN B GF9]",
    "Numeric Value": 131
  }
]

* * *

System: MS2 coat protein
Test: apparent KD of MS2 coat protein; higher = weaker reporter binding
Condition Details: Eterna round: R107; input ligand: arginine 13.2 mM

[
  {
    "Seq Text": "GGUAUGUAUUCGGAAACGAAUGCAUACCAACGAGGACCGGUACGGCCGCCACUCGGGCCGUGAUCACAUGAGGAUCACCCAUGUA [Ex Tryptophan A 5]",
    "Unit": "nM",
    "apparent KD of MS2 coat protein": 29.8
  },
  {
    "Seq Text": "ACAUGAGGAUCACCCAUGUUUGAUGUUCCUCGAGGACCGGUACGGCCGCCACUCGAACGAGUGGCACGCGAGUGCGCACUCGCGU [aTa]",
    "Unit": "nM",
    "apparent KD of MS2 coat protein": 14.3
  },
  {
    "Seq Text": "UUUUACGCAAGUAAUUCCCGGGAACCGGAUACCAGCUCCUCCAACAGCCCUUGGCAGCCGACCACAUGAGGAUCACCCAUGUUUC [theeternabot_exclusion_MS2_Theo_A_28]",
    "Unit": "nM",
    "apparent KD of MS2 coat protein": 12
  }
]

* * *

Tested on: K4 kissing-loop RNA reporter;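 note: bound reporter read as fluorescence of individual clusters on recovered sequencing chips by microscopy, with normalized cluster intensities fitted with a binding model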
Test: apparent KD of K4 kissing-loop reporter; higher = weaker reporter binding
Condition Details: Eterna round: R107; input ligand: arginine 13.2 mM
apparent KD of K4 kissing-loop reporter vs 100 nM: at or above is TRUE, below is FALSE.

[
  {
    "Seq Text": "AUUAAUUUCAGAGGAUAUCGUUAUUUUUUUAAGUAUAAUCUAUUAUGCAGUGAUGUUGCUAUUAAUCGAGAAGGCUGAUUUAUAA [JR_ExcFMNB_Sub001]",
    "Class Assignment": "TRUE"
  },
  {
    "Seq Text": "AGGUUUUGAUUAGGAUAUGCACUGACGAUGAGAAUAUAGUGAUGUUAUAUACUACGAAUUAGUAGAGUAGAAGGGAUUGAGGUUU [SSFMNB.Z]",
    "Class Assignment": "TRUE"
  },
  {
    "Seq Text": "CGAGUGAUGUUCGAAGAGUUGUUAAGCGAUACCAGCUAGGAAACUGGCCCUUGGCAGCGUAAUAAAUAAAUAAAUAAAUGAUCAC [whbob_Ex_Theo_A_th62]",
    "Class Assignment": "TRUE"
  },
  {
    "Seq Text": "GCCUAGGCUCGAAAGAGCCUAGGCUUUACUCAGGAUAUCUGGAAACAGAGAAGGGAGCUACUAGUGAUGUUAGGAAUUCCCUAAG",
    "Class Assignment": "FALSE"
  },
  {
    "Seq Text": "UGGUUUAACUGAAGGAGCGGCAAUUGAUAAGUAGAUAUAGUGAUGUUAUAUAAGAUAGAGAGCCAGGUAGGUCGCAGAGGUAUUU [ExArgB.P]",
    "Class Assignment": "TRUE"
  },
  {
    "Seq Text": "GCUGUCCAGUUCGAUACCAGAGUUAUCGCACUGUAGUGAUAAAGUGAUGUUUUAUCAGUCCUCCCUUGGCAGCGAUGCCCGGCUG [theeternabot_exclusion_KL_Theo_B_25]",
    "Class Assignment": "TRUE"
  }
]

* * *

Tested on: MS2 coat protein
Test: apparent KD of MS2 coat protein; designed switch direction (-1 OFF switch, 1 ON switch): 1; higher = weaker reporter binding
Condition Details: input ligand: FMN 200 uM

[
  {
    "Seq Text": "AUACCAUCGGGAGGAUAUGGCACCUUAUUGGUGCCAGAAGGUCUAACAUGAGGAUCACCCAUGUGGGAGUGGUCUAAUGACCAC [Eli NG1ss - 87] (Eterna round: R96, puzzle: Same State NG 1)",
    "apparent KD of MS2 coat protein": "0.144 µM"
  },
  {
    "Seq Text": "GCUCGCGGCGCAGGAUAUGGGUGCCUGUACAUGAGGAUCACCCAUGUUAAGGGACGGAAAACGAACCAGAAGGGCGUCGCAAGC [Zaorquor] (Eterna round: R96, puzzle: Same State NG 2)",
    "apparent KD of MS2 coat protein": "0.056 µM"
  },
  {
    "Seq Text": "AUAGUUUCCGAAGGAUAUGAUGAGGAUCACCCAUCAGAAGGUUGGCUAUUGGGUGGACAUGAGGAUCACCCAUGUCUUUCUGUU (Eterna round: R96, puzzle: Same State NG 1)",
    "apparent KD of MS2 coat protein": "0.0297 µM"
  }
]
